Reported Molar enthalpy of transition or fusion values for a set of compounds
# test summary: Molar enthalpy of transition or fusion
# condition summary: Crystal 2; DSC

CCCCCCCCCCCC[NH2+]CCCCCCCCCCCC.O=P([O-])(O)O [N-dodecyldodecan-1-aminium dihydrogen phosphate] :: 19.8 kcal/mol
CCCCCCCC[NH2+]CCCCCCCC.[Br-] [N-octyloctan-1-aminium bromide] :: 5.98 kcal/mol
CCCCCCCC[NH2+]CCCCCCCC.[O-][Cl+3]([O-])([O-])[O-] [N-octyloctan-1-aminium perchlorate] :: 8.84 kcal/mol
CCCCCCCCCCCC[NH2+]CCCCCCCCCCCC.[I-] [N-dodecyldodecan-1-aminium iodide] :: 9.2 kcal/mol
CCCCCCCCCC[NH2+]CCCCCCCCCC.O=[N+]([O-])[O-] [N-decyldecan-1-aminium nitrate] :: 15.3 kcal/mol

Task item: Give me measured Molar enthalpy of transition or fusion, please, for this compound: CCCCCCCCNCCCCCCCC.Cl [N-octyl-1-octaminium hydrochloride]
Reply: 8.84 kcal/mol

Task item: Give me measured Molar enthalpy of transition or fusion, please, for this compound: CCCCCCCC[NH2+]CCCCCCCC.O=S(=O)([O-])O [dioctylammonium hydrogen sulfate]
Reply: 1.15 kcal/mol

Task item: Give me measured Molar enthalpy of transition or fusion, please, for this compound: CCCCCCCCCCCC[NH2+]CCCCCCCCCCCC.[Cl-] [N-dodecyldodecan-1-aminium chloride]
Reply: 11.5 kcal/mol

###

# test summary: Molar enthalpy of transition or fusion
# condition summary: Crystal 2; DSC
quantity measured: Molar enthalpy of transition or fusion (kcal/mol)
Please give a number only; it is taken to be in kcal/mol.

Record excerpt, results attached:
CCCCCCCCCCCC[NH2+]CCCCCCCCCCCC.O=[N+]([O-])[O-] [N-dodecyldodecan-1-aminium nitrate] :: 18.4
CCCCCCCCCCCCCCCCCC[NH2+]CCCCCCCCCCCCCCCCCC.[I-] [N-octadecyloctadecan-1-aminium iodide] :: 17.9
CCCCCCCCCCCCCCCCCC[NH2+]CCCCCCCCCCCCCCCCCC.O=[N+]([O-])[O-] [N-octadecyloctadecan-1-aminium nitrate] :: 26.1
CCCCCCCCCCCC[NH2+]CCCCCCCCCCCC.[Br-] [N-dodecyldodecan-1-aminium bromide] :: 11.7

Now for another entry.
Task item: Give me measured Molar enthalpy of transition or fusion, please, for this compound: CCCCCCCCCC[NH2+]CCCCCCCCCC.[Cl-] [didecylammonium chloride]
Reply: 9.56

###

# condition summary: Crystal 3; DTA
quantity measured: Triple point temperature (K)
Please give a number only; it is taken to be in K.

CCCCCCCCCCCC[NH2+]CCCCCCCCCCCC.O=P([O-])(O)O [N-dodecyldodecan-1-aminium dihydrogen phosphate] :: 328.1
CCCCCCCCCCCC[NH2+]CCCCCCCCCCCC.O=S(=O)([O-])O [N-dodecyldodecan-1-aminium hydrogen sulfate] :: 347.1
CCCCCCCCCCCCCCCCCC[NH2+]CCCCCCCCCCCCCCCCCC.O=S(=O)([O-])O [N-octadecyloctadecan-1-aminium hydrogen sulfate] :: 343.1
CCCCCCCC[NH2+]CCCCCCCC.[I-] [N-octyloctan-1-aminium iodide] :: 267.1

Now for another entry.
Task item: Give me measured Triple point temperature, please, for this molecule: CCCCCCCC[NH2+]CCCCCCCC.O=S(=O)([O-])O [dioctylammonium hydrogen sulfate]
Reply: 371.1

###

# test summary: Molar enthalpy of transition or fusion
# condition summary: Crystal 3; DSC
Reported Molar enthalpy of transition or fusion values for a set of compounds
Please give a number only; it is taken to be in kcal/mol.

Record excerpt, results attached:
CCCCCCCC[NH2+]CCCCCCCC.[I-] [N-octyloctan-1-aminium iodide] :: 5.02
CCCCCCCCCCCCCCCCCC[NH2+]CCCCCCCCCCCCCCCCCC.O=S(=O)([O-])O [N-octadecyloctadecan-1-aminium hydrogen sulfate] :: 26.1
CCCCCCCCCCCC[NH2+]CCCCCCCCCCCC.O=S(=O)([O-])O [N-dodecyldodecan-1-aminium hydrogen sulfate] :: 7.17

Now for another entry.
Task item: Give me measured Molar enthalpy of transition or fusion, please, for this compound: CCCCCCCC[NH2+]CCCCCCCC.O=S(=O)([O-])O [dioctylammonium hydrogen sulfate]
Reply: 0.335
